// data source = patent US20260217683A1

assay: Pharmacokinetic experiment in mice; assay type: in vivo; settings: male, C57, po; mouse plasma, i.g. (10 mg/kg)
Task for the reader: assign each of the following molecules its reported Cmax.
Answers are plain numbers, in ng/mL.

# annotated cases, reported Cmax shown
O=c1ccc(-c2cnc(OCC(F)(F)F)nc2)nn1Cc1ccc2c(c1)C1CC1C2 (single isomer, unassigned) ... 1380
O=c1ccc(-c2cnc(OCC(F)(F)F)nc2)nn1Cc1ccc2c(c1)CC1CC21 (single isomer, unassigned) ... 688
O=C1CCc2ccc(Cn3nc(-c4cnc(OCC(F)(F)F)nc4)ccc3=O)cc21 ... 324
Cn1cc(Oc2ncc(-c3ccc(=O)n(Cc4ccc5c(c4)CCC5)n3)cn2)cn1 ... 1090

Shift focus to the following entry.
I have this molecule here, O=c1ccc(-c2cnc(OCC(F)(F)F)nc2)nn1Cc1ccc2[nH]ncc2c1 [Comparative Example 1, reference compound] , and I need its recorded Cmax. 267

* * *

Task for the reader: assign each of the following compounds its reported half-life.
experiment: Pharmacokinetic experiment in mice; format: in vivo; settings: male, C57, po; mouse plasma, i.g. (10 mg/kg)
Numbers only, in days.

# annotated cases, reported half-life shown
O=C1CCc2ccc(Cn3nc(-c4cnc(OCC(F)(F)F)nc4)ccc3=O)cc21 ... 4.25
O=C1CCc2ccc(Cn3nc(-c4cnc(O[C@H]5CCOC5)nc4)ccc3=O)cc21 ... 1.7
O=C1CCc2ccc(Cn3nc(-c4cnc(OCC5(F)CC5)nc4)ccc3=O)cc21 ... 2.78
O=C1CCc2ccc(Cn3nc(-c4cnc(O[C@@H]5CCOC5)nc4)ccc3=O)cc21 ... 2.18
O=C1CCc2ccc(Cn3nc(-c4cnc(OCC5CC5)nc4)ccc3=O)cc21 ... 1.75

For each of the items listed, what is its half-life?
1. O=c1ccc(-c2cnc(OCC(F)(F)F)nc2)nn1Cc1ccc2[nH]ncc2c1 [Comparative Example 1, reference compound]
2. O=C1CCc2ccc(Cn3nc(-c4cnc(OCC(F)F)nc4)ccc3=O)cc21

1: 0.787; 2: 3.8

* * *

molecular target: cardiac myosin SII (Bos taurus, UniProt Q9BE39); construct: purchased Cytoskeleton #MYO3-A; assay: Inhibition of hydrolysis of ATP by cardiac myosin SII; assay type: biochemical; conditions: 100 μM compound
Sequence (Q9BE39 whole entry): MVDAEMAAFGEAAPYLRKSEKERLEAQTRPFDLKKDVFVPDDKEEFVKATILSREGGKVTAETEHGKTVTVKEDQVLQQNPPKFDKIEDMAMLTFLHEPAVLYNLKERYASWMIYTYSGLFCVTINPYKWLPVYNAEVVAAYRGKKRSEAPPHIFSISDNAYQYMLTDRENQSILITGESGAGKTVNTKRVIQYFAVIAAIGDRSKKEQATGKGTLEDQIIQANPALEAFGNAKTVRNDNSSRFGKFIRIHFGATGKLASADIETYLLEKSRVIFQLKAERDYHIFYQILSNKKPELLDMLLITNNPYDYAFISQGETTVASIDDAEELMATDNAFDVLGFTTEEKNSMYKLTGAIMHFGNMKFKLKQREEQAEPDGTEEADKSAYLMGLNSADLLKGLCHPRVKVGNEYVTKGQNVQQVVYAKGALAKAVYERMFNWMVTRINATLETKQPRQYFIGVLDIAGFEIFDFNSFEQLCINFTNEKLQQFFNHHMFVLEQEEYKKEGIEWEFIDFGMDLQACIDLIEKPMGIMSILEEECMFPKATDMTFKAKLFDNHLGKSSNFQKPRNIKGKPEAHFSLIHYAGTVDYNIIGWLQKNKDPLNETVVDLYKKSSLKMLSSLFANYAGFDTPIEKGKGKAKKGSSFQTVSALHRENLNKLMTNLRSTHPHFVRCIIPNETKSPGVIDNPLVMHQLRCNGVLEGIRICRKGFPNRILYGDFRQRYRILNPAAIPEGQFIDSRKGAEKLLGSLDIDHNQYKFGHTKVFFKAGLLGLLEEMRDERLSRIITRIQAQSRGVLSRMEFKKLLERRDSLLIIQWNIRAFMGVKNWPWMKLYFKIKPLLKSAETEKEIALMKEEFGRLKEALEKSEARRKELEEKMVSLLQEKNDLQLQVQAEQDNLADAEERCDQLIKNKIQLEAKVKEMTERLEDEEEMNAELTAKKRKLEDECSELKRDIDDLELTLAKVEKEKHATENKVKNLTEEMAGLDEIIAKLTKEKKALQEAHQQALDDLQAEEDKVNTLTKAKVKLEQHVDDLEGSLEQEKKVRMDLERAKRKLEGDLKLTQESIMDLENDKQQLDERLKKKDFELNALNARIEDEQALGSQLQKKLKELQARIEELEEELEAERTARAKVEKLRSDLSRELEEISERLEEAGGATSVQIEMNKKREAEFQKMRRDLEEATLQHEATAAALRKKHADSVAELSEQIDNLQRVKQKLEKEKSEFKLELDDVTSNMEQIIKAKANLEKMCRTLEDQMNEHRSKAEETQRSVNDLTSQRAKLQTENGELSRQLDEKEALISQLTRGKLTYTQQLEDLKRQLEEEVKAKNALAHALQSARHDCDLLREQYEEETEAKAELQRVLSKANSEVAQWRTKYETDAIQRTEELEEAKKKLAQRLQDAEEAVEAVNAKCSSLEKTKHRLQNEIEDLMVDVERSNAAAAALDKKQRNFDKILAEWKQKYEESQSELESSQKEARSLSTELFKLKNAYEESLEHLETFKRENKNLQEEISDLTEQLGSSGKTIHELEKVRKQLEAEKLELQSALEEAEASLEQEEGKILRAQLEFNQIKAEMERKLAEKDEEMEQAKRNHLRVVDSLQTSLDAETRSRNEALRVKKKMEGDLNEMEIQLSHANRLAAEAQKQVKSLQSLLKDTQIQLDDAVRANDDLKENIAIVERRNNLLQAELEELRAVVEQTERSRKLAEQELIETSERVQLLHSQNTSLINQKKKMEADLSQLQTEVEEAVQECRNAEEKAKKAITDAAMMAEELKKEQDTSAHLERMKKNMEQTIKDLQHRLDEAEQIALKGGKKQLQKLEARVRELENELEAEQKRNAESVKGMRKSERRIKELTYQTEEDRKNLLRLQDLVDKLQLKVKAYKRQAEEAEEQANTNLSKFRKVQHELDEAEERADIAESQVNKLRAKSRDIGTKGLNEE
Sequence (P85100 whole entry partner): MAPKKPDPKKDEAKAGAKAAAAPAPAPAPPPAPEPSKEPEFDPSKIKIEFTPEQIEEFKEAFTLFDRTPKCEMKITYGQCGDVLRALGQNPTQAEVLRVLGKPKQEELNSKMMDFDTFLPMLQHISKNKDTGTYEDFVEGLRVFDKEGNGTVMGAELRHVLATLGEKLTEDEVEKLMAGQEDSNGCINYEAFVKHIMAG
Sequence (Q3SZE5 whole entry partner): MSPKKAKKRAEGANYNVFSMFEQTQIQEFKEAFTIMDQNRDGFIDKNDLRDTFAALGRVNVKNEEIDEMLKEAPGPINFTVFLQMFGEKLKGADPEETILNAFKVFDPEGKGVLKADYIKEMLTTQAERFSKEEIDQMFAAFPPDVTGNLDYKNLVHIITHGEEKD
observed_property: inhibition at 100 µM (%)
One number for each entry, in %.

# annotated cases, reported inhibition at 100 µM shown
O=c1ccc(-c2cnc(OC3CCOCC3)nc2)nn1Cc1ccc2c(c1)CC2 ... 2
O=C1CCc2ccc(Cn3nc(-c4cnc(Oc5cncc(Cl)c5)nc4)ccc3=O)cc21 ... -2

For each of the items listed, what is its inhibition at 100 µM?
1. O=c1ccc(-c2cnc(O[C@@H]3CCOC3)nc2)nn1Cc1ccc2c(c1)CCC2
2. O=C1CCc2ccc(Cn3nc(-c4cnc(C5CC5)nc4)ccc3=O)cc21
3. O=C1CCc2ccc(Cn3nc(-c4cnc(OC5CC(F)(F)C5)nc4)ccc3=O)cc21
4. O=c1ccc(-c2cnc(OC3CCC(F)(F)CC3)nc2)nn1Cc1ccc2c(c1)CC2
5. O=C1CCc2ccc(Cn3nc(-c4cnc(OCC5CC5)nc4)ccc3=O)cc21
6. O=c1ccc(-c2cnc(OCCCCl)nc2)nn1Cc1ccc2c(c1)CC2
7. O=c1ccc(-c2cnc(OCC(F)(F)F)nc2)nn1Cc1cc(F)c2c(c1)CCC2
8. O=c1ccc(-c2cnc(OCCCF)nc2)nn1Cc1ccc2c(c1)CCC2

1. 7
2. 10
3. 14
4. -9
5. 22
6. 18
7. 10.2
8. 21

For each of the items listed, what is its inhibition at 100 µM?
1. CC(F)(F)COc1ncc(-c2ccc(=O)n(Cc3ccc4c(c3)C(=O)CC4)n2)cn1
2. O=C1CCc2c(Cl)cc(Cn3nc(-c4cnc(OCC(F)(F)F)nc4)ccc3=O)cc21
3. O=c1ccc(-c2cnc(OCC(F)(F)F)nc2)nn1Cc1ccc2c(c1)C1CC1C2 (single isomer, unassigned)
4. O=c1ccc(-c2cnc(C3CCC3)nc2)nn1Cc1ccc2c(c1)CC2
5. O=c1ccc(-c2cnc(OCC3CC3)nc2)nn1Cc1ccc2c(c1)CCC2
6. Cn1cc(Oc2ncc(-c3ccc(=O)n(Cc4ccc5c(c4)CCC5)n3)cn2)cn1
7. O=C1CCc2ccc(Cn3nc(-c4cnc(Oc5csc(C(F)(F)F)c5)nc4)ccc3=O)cc21

1. 6
2. 17
3. 8
4. 9.7
5. -17.8
6. -10
7. 1

* * *

target: CYP3A4 (Homo sapiens, UniProt P08684); construct: incubated with human liver microsomes and test compounds of different concentrations; from tissue; host or cells: human liver microsomes; experiment: CYP450 enzyme inhibition, human liver microsomes, CYP3A4; format: in vitro ADME
Sequence (P08684 whole entry): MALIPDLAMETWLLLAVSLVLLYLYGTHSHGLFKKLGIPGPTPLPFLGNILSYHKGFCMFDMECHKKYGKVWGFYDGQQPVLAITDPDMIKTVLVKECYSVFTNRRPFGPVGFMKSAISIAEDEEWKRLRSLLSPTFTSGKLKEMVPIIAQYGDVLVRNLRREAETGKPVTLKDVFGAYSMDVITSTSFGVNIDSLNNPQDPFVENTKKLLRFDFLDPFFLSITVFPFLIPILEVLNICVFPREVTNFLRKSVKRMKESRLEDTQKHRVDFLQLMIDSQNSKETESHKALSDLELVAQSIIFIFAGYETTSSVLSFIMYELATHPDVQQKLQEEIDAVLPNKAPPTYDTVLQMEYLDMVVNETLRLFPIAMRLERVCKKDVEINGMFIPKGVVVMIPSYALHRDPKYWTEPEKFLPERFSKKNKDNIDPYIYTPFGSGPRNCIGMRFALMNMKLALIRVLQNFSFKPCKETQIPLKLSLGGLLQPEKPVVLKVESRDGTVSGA
observed_property: IC50

# annotated cases, reported IC50 shown
O=c1ccc(-c2cnc(O[C@H]3CCOC3)nc2)nn1Cc1ccc2c(c1)CC2 ... > 30 µM
O=C1CCc2ccc(Cn3nc(-c4cnc(OC5COCC5(F)F)nc4)ccc3=O)cc21 (stereo not drawn) ... > 30 µM

Shift focus to the following entry.
I have this molecule here, `O=C1CCc2ccc(Cn3nc(-c4cnc(Oc5cncc(Cl)c5)nc4)ccc3=O)cc21` , and I need its recorded IC50. > 30 µM

* * *

molecular target: CYP2C19 (Homo sapiens, UniProt P33261); construct: incubated with human liver microsomes and test compounds of different concentrations; from tissue; host or cells: human liver microsomes; assay: CYP450 enzyme inhibition, human liver microsomes, CYP2C19; type: in vitro ADME
Sequence (P33261 whole entry): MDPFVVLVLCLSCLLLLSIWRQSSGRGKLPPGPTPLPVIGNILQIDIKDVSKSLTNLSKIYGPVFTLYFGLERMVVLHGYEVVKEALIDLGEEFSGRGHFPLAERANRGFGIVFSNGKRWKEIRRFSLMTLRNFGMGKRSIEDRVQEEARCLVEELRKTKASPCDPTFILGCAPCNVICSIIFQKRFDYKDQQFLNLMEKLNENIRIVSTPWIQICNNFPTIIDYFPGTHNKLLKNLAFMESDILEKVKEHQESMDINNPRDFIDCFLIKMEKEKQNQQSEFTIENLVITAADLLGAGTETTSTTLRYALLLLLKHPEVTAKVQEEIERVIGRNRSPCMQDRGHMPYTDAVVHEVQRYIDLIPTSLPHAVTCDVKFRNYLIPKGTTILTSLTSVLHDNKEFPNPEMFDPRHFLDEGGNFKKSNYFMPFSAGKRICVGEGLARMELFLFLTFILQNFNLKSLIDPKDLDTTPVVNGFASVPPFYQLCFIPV
observed_property: IC50

# annotated cases, reported IC50 shown
O=C1CCc2ccc(Cn3nc(-c4cnc(OC5COCC5(F)F)nc4)ccc3=O)cc21 (stereo not drawn) ... > 30 µM
O=C1CCc2ccc(Cn3nc(-c4cnc(OCC(F)F)nc4)ccc3=O)cc21 ... > 30 µM

Shift focus to the following entry.
I have this compound here, `O=C1CCc2ccc(Cn3nc(-c4cnc(OCC(F)(F)F)nc4)ccc3=O)cc21` , and I need its recorded IC50. > 30 µM

* * *

assay: Pharmacokinetic experiment of beagle dogs; format: in vivo; conditions: male, dog, plasma, oral, beagles, intragastric 3 mg/kg vs intravenous 1 mg/kg, read-out: bioavailability (F)
observed_property: bioavailability (%)
One number for each entry, in %.

I have this molecule here, `O=C1CCc2ccc(Cn3nc(-c4cnc(OCC(F)F)nc4)ccc3=O)cc21` , and I need its recorded bioavailability. 112

* * *

Task for the reader: assign each of the following molecules its reported IC50.
target: hERG potassium ion channel (Homo sapiens, UniProt Q12809); construct: expressed in transfected cells; assay: Effect on hERG potassium ion channel (manual patch-clamp, CHO cells); type: cell-based; settings: CHO cells stably expressing hERG, whole cell patch-clamp; read-out: IC50 of the inhibitory effect on hERG potassium channel current
Sequence (Q12809 whole entry): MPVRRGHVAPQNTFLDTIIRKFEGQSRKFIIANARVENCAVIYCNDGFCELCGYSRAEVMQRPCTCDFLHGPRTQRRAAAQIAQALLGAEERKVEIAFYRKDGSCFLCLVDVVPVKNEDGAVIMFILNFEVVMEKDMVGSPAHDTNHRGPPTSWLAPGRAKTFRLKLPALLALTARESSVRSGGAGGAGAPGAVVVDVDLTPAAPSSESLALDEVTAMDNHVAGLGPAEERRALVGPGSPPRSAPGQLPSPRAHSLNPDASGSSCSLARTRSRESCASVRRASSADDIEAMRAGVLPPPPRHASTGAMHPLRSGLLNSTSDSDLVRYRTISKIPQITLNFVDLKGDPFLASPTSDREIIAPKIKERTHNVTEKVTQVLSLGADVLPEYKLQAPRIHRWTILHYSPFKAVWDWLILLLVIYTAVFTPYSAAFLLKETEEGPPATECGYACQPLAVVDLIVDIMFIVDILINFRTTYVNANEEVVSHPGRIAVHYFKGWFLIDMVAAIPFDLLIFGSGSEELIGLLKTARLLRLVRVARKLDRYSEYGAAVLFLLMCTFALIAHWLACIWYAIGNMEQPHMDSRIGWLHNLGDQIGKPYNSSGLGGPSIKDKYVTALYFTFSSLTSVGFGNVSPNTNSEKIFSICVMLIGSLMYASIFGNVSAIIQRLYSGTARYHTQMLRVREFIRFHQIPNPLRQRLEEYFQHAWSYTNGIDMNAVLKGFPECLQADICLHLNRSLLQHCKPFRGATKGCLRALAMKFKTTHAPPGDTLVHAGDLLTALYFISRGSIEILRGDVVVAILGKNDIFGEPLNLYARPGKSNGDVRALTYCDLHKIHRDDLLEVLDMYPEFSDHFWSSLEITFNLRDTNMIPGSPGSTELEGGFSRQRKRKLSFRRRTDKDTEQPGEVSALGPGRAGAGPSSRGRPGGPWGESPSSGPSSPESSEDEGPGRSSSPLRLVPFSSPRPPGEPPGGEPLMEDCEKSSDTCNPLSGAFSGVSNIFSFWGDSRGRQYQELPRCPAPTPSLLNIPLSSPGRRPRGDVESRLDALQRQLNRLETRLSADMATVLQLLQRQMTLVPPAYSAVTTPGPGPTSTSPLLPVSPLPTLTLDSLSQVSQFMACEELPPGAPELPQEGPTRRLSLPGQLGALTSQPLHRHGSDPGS

O=c1ccc(-c2cnc(OCC(F)(F)F)nc2)nn1Cc1ccc2c(c1)CCC2 ... > 40 µM
O=C1CCc2ccc(Cn3nc(-c4cnc(Oc5cncc(F)c5)nc4)ccc3=O)cc21 ... > 40 µM
O=C1CCc2c(F)cc(Cn3nc(-c4cnc(O[C@H]5CCOC5)nc4)ccc3=O)cc21 ... > 40 µM

For each of the items listed, what is its IC50?
1. O=c1ccc(-c2cnc(OCC(F)(F)F)nc2)nn1Cc1ccc2[nH]ncc2c1 [Comparative Example 1, reference compound]
2. O=c1ccc(-c2cnc(C3CC3)nc2)nn1Cc1ccc2c(c1)CC2

["2.5 µM", "> 40 µM"]

* * *

Task for the reader: assign each of the following molecules its reported IC50.
Target: CYP1A2 (Homo sapiens)
Construct: incubated with human liver microsomes and test compounds of different concentrations; from tissue; host or cells: human liver microsomes
Sequence (P05177 1-516): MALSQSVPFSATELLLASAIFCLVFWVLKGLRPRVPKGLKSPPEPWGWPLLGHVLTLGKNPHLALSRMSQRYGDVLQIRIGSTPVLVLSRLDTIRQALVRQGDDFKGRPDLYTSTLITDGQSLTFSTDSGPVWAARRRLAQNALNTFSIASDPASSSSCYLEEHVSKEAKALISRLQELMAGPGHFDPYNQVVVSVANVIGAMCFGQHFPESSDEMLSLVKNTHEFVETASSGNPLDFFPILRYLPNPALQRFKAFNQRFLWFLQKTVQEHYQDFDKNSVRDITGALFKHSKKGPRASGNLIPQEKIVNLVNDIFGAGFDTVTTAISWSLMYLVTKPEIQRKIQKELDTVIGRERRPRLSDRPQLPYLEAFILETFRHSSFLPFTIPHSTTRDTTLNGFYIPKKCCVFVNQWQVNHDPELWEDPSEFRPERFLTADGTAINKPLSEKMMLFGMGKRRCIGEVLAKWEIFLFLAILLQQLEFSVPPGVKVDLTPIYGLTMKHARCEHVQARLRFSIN
Test: CYP450 enzyme inhibition, human liver microsomes, CYP1A2
Type: in vitro ADME

# annotated cases, reported IC50 shown
O=c1ccc(-c2cnc(O[C@H]3CCOC3)nc2)nn1Cc1ccc2c(c1)CC2 ... > 30 µM
O=C1CCc2c(F)cc(Cn3nc(-c4cnc(O[C@H]5CCOC5)nc4)ccc3=O)cc21 ... > 30 µM
O=C1CCc2c(Cl)cc(Cn3nc(-c4cnc(O[C@H]5CCOC5)nc4)ccc3=O)cc21 ... > 30 µM
O=C1CCc2c1cc(Cn1nc(-c3cnc(OCC(F)(F)F)nc3)ccc1=O)cc2C(F)F ... > 30 µM
O=C1Cc2cc(Cn3nc(-c4cnc(OCC(F)(F)F)nc4)ccc3=O)ccc21 ... > 30 µM

For each of the items listed, what is its IC50?
1. O=C1CCc2c(Cl)cc(Cn3nc(-c4cnc(C5CC5)nc4)ccc3=O)cc21
2. O=C1CCc2ccc(Cn3nc(-c4cnc(Oc5cncc(Cl)c5)nc4)ccc3=O)cc21

> 30 µM
> 30 µM
